pIC50 values by entry
- tested.system: SHP1 (Homo sapiens (Human), UniProt P29350)
- Sequence (P29350 whole entry): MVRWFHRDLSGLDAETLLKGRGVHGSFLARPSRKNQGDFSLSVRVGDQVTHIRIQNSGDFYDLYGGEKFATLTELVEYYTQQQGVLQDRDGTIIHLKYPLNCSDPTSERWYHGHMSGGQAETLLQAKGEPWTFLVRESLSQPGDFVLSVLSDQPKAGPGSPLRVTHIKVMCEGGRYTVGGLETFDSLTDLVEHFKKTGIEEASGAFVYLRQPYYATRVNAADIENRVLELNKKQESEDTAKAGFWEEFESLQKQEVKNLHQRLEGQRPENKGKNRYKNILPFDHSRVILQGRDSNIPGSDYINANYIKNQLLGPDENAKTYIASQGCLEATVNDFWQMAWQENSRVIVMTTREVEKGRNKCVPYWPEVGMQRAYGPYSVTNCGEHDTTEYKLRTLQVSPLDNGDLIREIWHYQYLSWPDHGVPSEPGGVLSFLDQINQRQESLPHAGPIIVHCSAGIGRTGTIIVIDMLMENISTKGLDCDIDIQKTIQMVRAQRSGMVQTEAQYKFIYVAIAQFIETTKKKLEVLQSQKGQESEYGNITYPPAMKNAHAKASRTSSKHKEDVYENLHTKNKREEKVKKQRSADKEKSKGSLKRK
pIC50: −log10 of the molar value.

>>> value_reported("Nc1nccc(Sc2c(N)nc(N3CCC4(CC3)Cc3ccccc3[C@H]4N)n3ccnc23)c1Cl")
"< 6.30"

From here, focus on the item given below.
For SHP1 (Homo sapiens (Human), UniProt P29350), give the measured pIC50 of the entry Cc1nc(N2CCC3(CC2)Cc2ccccc2[C@H]3N)n2ccnc2c1Sc1ccnc(N)c1Cl
< 6.30

---

// UniProtKB P10632 pIC50 records
Sequence (P10632 whole entry): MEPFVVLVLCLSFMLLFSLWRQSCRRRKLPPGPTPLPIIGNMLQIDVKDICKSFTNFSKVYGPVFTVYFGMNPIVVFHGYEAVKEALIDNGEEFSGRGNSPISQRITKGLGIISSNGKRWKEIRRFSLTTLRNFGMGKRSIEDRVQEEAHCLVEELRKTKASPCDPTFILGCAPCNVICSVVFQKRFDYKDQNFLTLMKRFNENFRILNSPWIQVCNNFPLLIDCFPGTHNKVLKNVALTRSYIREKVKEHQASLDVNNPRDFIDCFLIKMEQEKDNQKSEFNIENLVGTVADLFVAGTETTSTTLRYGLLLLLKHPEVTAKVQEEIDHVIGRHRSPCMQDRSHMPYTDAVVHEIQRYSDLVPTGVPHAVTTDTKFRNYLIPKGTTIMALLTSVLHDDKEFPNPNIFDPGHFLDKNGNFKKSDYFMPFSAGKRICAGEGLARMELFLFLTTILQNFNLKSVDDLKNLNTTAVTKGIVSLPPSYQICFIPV
pIC50: −log10 of the molar value.

>>> value_reported("Nc1nccc(Sc2c(N)nc(N3CCC4(CC3)Cc3ccccc3[C@H]4N)n3ccnc23)c1Cl")
"< 4.60"

Fill in reported pIC50 for this entry: Cc1nc(N2CCC3(CC2)Cc2ccccc2[C@H]3N)n2ccnc2c1Sc1ccnc(N)c1Cl
< 4.60

---

- Test system: NCI-H 508 (lung cancer)
- test.summary: Cell proliferation inhibition, MTT
- Type: cell-based
- experimental.context: Homo sapiens, NCI-H508
pIC50: −log10 of the molar value.
pIC50 values by entry

>>> value_reported("Nc1nccc(Sc2c(N)nc(N3CCC4(CC3)Cc3ccccc3[C@H]4N)n3ccnc23)c1Cl [Example 4]")
"> 7.00"

From here, focus on the item given below.
Fill in reported pIC50 for this entry: Cc1nc(N2CCC3(CC2)Cc2ccccc2[C@H]3N)n2ccnc2c1Sc1ccnc(N)c1Cl [Example 1]
> 7.00

---

- System: KATO III (gastric cancer)
- test.summary: Cell proliferation inhibition, MTT
- Format: cell-based
- experimental.context: Homo sapiens
pIC50: −log10 of the molar value.
reported.property: pIC50

>>> value_reported("Nc1nccc(Sc2c(N)nc(N3CCC4(CC3)Cc3ccccc3[C@H]4N)n3ccnc23)c1Cl [Example 4]")
"> 6.00"

From here, focus on the item given below.
Fill in reported pIC50 for this entry: Cc1nc(N2CCC3(CC2)Cc2ccccc2[C@H]3N)n2ccnc2c1Sc1ccnc(N)c1Cl [Example 1]
> 6.00

---

AUC values by entry
- test.summary: In vivo pharmacokinetic parameters
- Set-up: unit not given here
- experimental.context: plasma; Mouse, po, 5 mg/kg; read-out: Area under the curve AUC
Reply with the value as a number alone.

>>> value_reported("Nc1nccc(Sc2c(N)nc(N3CCC4(CC3)Cc3ccccc3[C@H]4N)n3ccnc23)c1Cl")
557

From here, focus on the item given below.
Fill in reported AUC for this entry: Cc1nc(N2CCC3(CC2)Cc2ccccc2[C@H]3N)n2ccnc2c1Sc1ccnc(N)c1Cl
5840

---

- test.summary: in vitro
- Format: in vitro ADME
- experimental.context: rat; rats liver microsomes, 1 μM compound
half-life at 1 μM values by entry

>>> value_reported("Cc1nc(N2CCC3(CC2)Cc2ccccc2[C@H]3N)n2ccnc2c1Sc1ccnc(N)c1Cl [Example 1]")
"> 1 h"

From here, focus on the item given below.
Fill in reported half-life at 1 μM for this entry: Nc1nccc(Sc2c(N)nc(N3CCC4(CC3)Cc3ccccc3[C@H]4N)n3ccnc23)c1Cl [Example 4]
> 1 h

---

- test.summary: In vivo pharmacokinetic parameters
- experimental.context: plasma; Mouse, po, 5 mg/kg; read-out: Maximum plasma concentration Cmax
Cmax values by entry
# value in nM; strip the unit string

>>> value_reported("Cc1nc(N2CCC3(CC2)Cc2ccccc2[C@H]3N)n2ccnc2c1Sc1ccnc(N)c1Cl [Example 1]")
306

From here, focus on the item given below.
Fill in reported Cmax for this entry: Nc1nccc(Sc2c(N)nc(N3CCC4(CC3)Cc3ccccc3[C@H]4N)n3ccnc23)c1Cl [Example 4]
79

---

- Test system: KYSE520 (oesophageal cancer cells)
- test.summary: Cell proliferation inhibition, MTT
- Type: cell-based
- experimental.context: Homo sapiens, KYSE-520
IC50 values by entry

Fill in reported IC50 for this entry: Cc1nc(N2CCC3(CC2)Cc2ccccc2[C@H]3N)n2ccnc2c1Sc1ccnc(N)c1Cl
< 100 nM

Fill in reported IC50 for this entry: Nc1nccc(Sc2c(N)nc(N3CCC4(CC3)Cc3ccccc3[C@H]4N)n3ccnc23)c1Cl
< 100 nM

---

- test.summary: In vivo pharmacokinetic parameters
- experimental.context: plasma; Beagle Dog, po, 5 mg/kg; read-out: Maximum plasma concentration Cmax
reported.property: Cmax (nM)
# value in nM; strip the unit string

Fill in reported Cmax for this entry: Cc1nc(N2CCC3(CC2)Cc2ccccc2[C@H]3N)n2ccnc2c1Sc1ccnc(N)c1Cl [Example 1]
907

---

- test.summary: in vitro
- Assay type: in vitro ADME
- experimental.context: mouse; mice liver microsomes, 1 μM compound
reported.property: half-life at 1 μM

>>> value_reported("Cc1nc(N2CCC3(CC2)Cc2ccccc2[C@H]3N)n2ccnc2c1Sc1ccnc(N)c1Cl")
"> 1 h"

From here, focus on the item given below.
Fill in reported half-life at 1 μM for this entry: Nc1nccc(Sc2c(N)nc(N3CCC4(CC3)Cc3ccccc3[C@H]4N)n3ccnc23)c1Cl
> 1 h

---

// CYP2D6 (Homo sapiens (Human), UniProt P10635) IC50 records

>>> value_reported("Cc1nc(N2CCC3(CC2)Cc2ccccc2[C@H]3N)n2ccnc2c1Sc1ccnc(N)c1Cl")
"> 25 µM"

From here, focus on the item given below.
For CYP2D6 (Homo sapiens (Human), UniProt P10635), give the measured IC50 of the entry Nc1nccc(Sc2c(N)nc(N3CCC4(CC3)Cc3ccccc3[C@H]4N)n3ccnc23)c1Cl
> 25 µM

---

- Test system: MOLM 13 (leukemia cells)
- test.summary: Cell proliferation inhibition, MTT
- Type: cell-based
- experimental.context: Homo sapiens
- From the text: […]
pIC50: −log10 of the molar value.
reported.property: pIC50

>>> value_reported("Cc1nc(N2CCC3(CC2)Cc2ccccc2[C@H]3N)n2ccnc2c1Sc1ccnc(N)c1Cl")
"> 7.00"

Fill in reported pIC50 for this entry: Nc1nccc(Sc2c(N)nc(N3CCC4(CC3)Cc3ccccc3[C@H]4N)n3ccnc23)c1Cl
> 7.00

---

- tested.system: PTP1B (Homo sapiens (Human), UniProt P18031)
- Sequence (P18031 whole entry, species assumed): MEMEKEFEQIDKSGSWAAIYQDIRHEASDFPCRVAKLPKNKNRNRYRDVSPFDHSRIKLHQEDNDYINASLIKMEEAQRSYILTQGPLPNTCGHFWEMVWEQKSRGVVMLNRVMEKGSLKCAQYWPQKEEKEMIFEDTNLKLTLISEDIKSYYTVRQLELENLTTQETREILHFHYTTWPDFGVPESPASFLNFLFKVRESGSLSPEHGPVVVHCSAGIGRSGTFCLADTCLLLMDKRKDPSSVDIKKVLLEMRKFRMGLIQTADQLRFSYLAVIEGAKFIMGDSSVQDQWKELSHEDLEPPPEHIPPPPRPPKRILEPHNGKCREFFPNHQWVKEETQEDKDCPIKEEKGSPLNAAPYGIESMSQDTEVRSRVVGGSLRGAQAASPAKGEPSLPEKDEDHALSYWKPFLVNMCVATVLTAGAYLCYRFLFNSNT
IC50 values by entry

For PTP1B (Homo sapiens (Human), UniProt P18031), give the measured IC50 of the entry Cc1nc(N2CCC3(CC2)Cc2ccccc2[C@H]3N)n2ccnc2c1Sc1ccnc(N)c1Cl
> 500 nM

For PTP1B (Homo sapiens (Human), UniProt P18031), give the measured IC50 of the entry Nc1nccc(Sc2c(N)nc(N3CCC4(CC3)Cc3ccccc3[C@H]4N)n3ccnc23)c1Cl
> 500 nM

---

- tested.system: SHP2 enzyme (Homo sapiens (Human))
- Sequence (Q06124 whole entry): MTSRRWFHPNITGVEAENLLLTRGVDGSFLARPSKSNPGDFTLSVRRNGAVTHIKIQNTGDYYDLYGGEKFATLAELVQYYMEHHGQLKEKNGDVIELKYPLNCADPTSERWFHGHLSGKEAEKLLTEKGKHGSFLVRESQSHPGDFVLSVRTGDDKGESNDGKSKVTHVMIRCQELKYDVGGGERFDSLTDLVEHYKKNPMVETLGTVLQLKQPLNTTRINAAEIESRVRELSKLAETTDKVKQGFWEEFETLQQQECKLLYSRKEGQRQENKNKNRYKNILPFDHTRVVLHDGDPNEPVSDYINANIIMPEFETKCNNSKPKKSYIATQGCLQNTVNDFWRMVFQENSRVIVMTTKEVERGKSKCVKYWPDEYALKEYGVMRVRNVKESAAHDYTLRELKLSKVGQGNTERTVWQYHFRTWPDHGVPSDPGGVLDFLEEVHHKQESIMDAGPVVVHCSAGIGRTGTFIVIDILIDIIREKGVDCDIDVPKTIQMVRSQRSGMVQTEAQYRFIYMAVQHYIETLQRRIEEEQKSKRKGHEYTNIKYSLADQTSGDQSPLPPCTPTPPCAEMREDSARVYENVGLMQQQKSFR
reported.property: pIC50
Scale note: pIC50 = -log10(concentration in M).

Some compounds with known pIC50 results, for comparison:
>>> value_reported("Nc1nccc(Sc2c(N)nc(N3CCC4(CC3)Cc3ccccc3[C@H]4N)n3ccnc23)c1Cl [Example 4]")
8.72
>>> value_reported("Cc1nc(N2CCC(C)(N)CC2)n2ccnc2c1-c1cccc(Cl)c1Cl [Comparative Compound 1, reference compound]")
6.85
>>> value_reported("Cc1nc(N2CCC3(CC2)Cc2ncsc2[C@H]3N)n2ccnc2c1Sc1ccnc(N)c1Cl [Example 14]")
8.51
>>> value_reported("Cc1nc(N2CCC3(CC2)CO[C@@H](C)[C@H]3N)n2ccnc2c1Sc1ccnc(N)c1Cl [Comparative Compound 3, reference compound]")
8.17
>>> value_reported("Cc1nc(N2CCC3(CC2)Cc2ccccc2[C@H]3N)n2ccnc2c1Sc1ccnc(N)c1Cl [Example 1]")
8.36

For SHP2 enzyme (Homo sapiens (Human)), give the measured pIC50 of the entry Nc1nccc(Sc2c(CF)nc(N3CCC4(CC3)Cc3ccccc3[C@H]4N)n3ccnc23)c1Cl [Example 12]
8.54

For SHP2 enzyme (Homo sapiens (Human)), give the measured pIC50 of the entry CC1(N)CCN(c2nc(N)c(-c3cccc(Cl)c3Cl)c3nccn23)CC1 [Example 27]
6.54

---

- System: MV4-11 leukemia cells
- test.summary: Inhibition of proliferation of MV4-11 leukemia cells (CellTiter-Glo, 72 h)
- Assay type: cell-based
- experimental.context: Homo sapiens, MV4-11; 72 h; in uM; read-out: IC50 value, MV4-11 cell proliferation
IC50 values by entry

Some molecules with known IC50 results, for comparison:
>>> value_reported("Cc1cc(N2CCC(C)(N)CC2)n2ccnc2c1-c1cccc(Cl)c1Cl")
"5.4 µM"
>>> value_reported("Cc1nc(N2CCC(C)(N)CC2)n2ncnc2c1-c1cccc(Cl)c1Cl")
"> 10 µM"

Fill in reported IC50 for this entry: Cc1nc(N2CCC(C)(N)CC2)n2cnnc2c1-c1cccc(Cl)c1Cl
> 10 µM

Fill in reported IC50 for this entry: Cc1cc(N2CCC(C)(N)CC2)n2cnnc2c1-c1cccc(Cl)c1Cl
> 10 µM

---

- test.summary: in vitro
- Type: in vitro ADME
- experimental.context: monkey; monkeys liver microsomes, 1 μM compound
half-life at 1 μM values by entry

>>> value_reported("Nc1nccc(Sc2c(N)nc(N3CCC4(CC3)Cc3ccccc3[C@H]4N)n3ccnc23)c1Cl")
"> 1 h"

From here, focus on the item given below.
Fill in reported half-life at 1 μM for this entry: Cc1nc(N2CCC3(CC2)Cc2ccccc2[C@H]3N)n2ccnc2c1Sc1ccnc(N)c1Cl
> 1 h
